Parameter GI50: see the listing below.
- System: MDA-MB-231
- Protocol text: NCI tumour cell line growth inhibition, 48 h
The source made the active and inactive calls. Cut-off read from the data, not from the text of the source: active = GI50 up to about 1.1 µM and inactive = higher.

| Compound | GI50 |
| --- | --- |
| CC(=O)N(O)c1ccc(-c2nc3ccccc3s2)cc1 | 49.7 µM (inactive) |
| COc1cc(C2SCCCCCCCCCCSC(c3ccc(O)c(OC)c3)SCCCCCCCCCCS2)ccc1O (stereo not drawn) | > 100 µM (inactive) |
| C=C1CN(C(=O)c2cc3cc(OC)c(OC)c(OC)c3[nH]2)c2cc([N+](=O)[O-])ccc21 | 17.5 µM (inactive) |
| COC(=O)c1ccc(NCc2c(O)ccc(O)c2Br)cc1Cl | 15.2 µM (inactive) |
| CSc1[nH]nc(N)c1C(=O)Nc1ccc(Cl)cc1 | > 100 µM (inactive) |
| CC(=O)O[C@H]1[C@@H](OC(C)=O)C(C)(C)/C=C/[C@H](C)C(=O)[C@@]2(OC(C)=O)C[C@@](C)(OC(C)=O)[C@H](OC(C)=O)[C@@H]2[C@H]2OC(=O)CC[C@@]2(OC(=O)c2ccccc2)[C@@H]1OCC(C)C | > 100 µM (inactive) |
| O=C1CSC(c2c[nH]c3ccccc23)N1c1cccc(Cl)c1 (stereo not drawn) | 24 µM (inactive) |
| CC1(C)CC(=O)C2=C(C1)NC1=C(C(=O)CC(C)(C)C1)C2c1ccc([N+](=O)[O-])cc1 | > 100 µM (inactive) |
